FYI, the data here is from patent US20240360229A1.

Molecular target: T1, human CCR8 (human, UniProt P51685 1-355)
T1 construct: also CHO-hCCR8-Ga15 / CHO/hCCR8.Gna15); also called hCCR8; huCCR8
T1 sequence (P51685 whole entry): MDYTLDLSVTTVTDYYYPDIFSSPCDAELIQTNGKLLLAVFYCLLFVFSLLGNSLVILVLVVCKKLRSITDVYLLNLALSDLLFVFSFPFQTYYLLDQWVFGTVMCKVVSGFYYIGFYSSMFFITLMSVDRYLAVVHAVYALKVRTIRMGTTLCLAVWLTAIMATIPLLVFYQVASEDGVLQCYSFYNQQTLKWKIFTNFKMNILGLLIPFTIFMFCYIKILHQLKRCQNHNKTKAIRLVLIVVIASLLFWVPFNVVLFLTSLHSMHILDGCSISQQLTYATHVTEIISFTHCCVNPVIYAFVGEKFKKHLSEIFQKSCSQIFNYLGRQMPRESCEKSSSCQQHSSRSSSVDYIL
Test: flow cytometry titration on CHO cells stably expressing human CCR8 (14 h, room temperature)
Can you tell me EC50 for the items I'm about to list?
One number for each entry, in nM.

Sample answers from the record:
anti-CCR8 1889 S12P.I29V.Y58A (PVA) (antibody, V domains shown, It is put together from the printed names of the heavy chain variant (Y58A) and the light chain variant (S12P.I29V)) VH: EVQLLESGGGLVQPGGSLRLSCAASGIDLSTYAMGWVREAPGKGLEWVGLIHRSGRTAYATWAKGRFTISKDSSKNTLYLQMNSLRAEDTAVYYCTRSYPDYSATASIWGQGTTVTVSS VL: DIQVTQSPSSLPASVGDRVTITCQASENVANALAWYQKKPGKPPKFLIYGASNLASGVPSRFSGSGSGTDFTFTISSLQPEDIATYYCQQAYYGNSFVEGTFGGGTKVEIK
1.03
anti-CCR8 1889 S12P.I29V (PV) (antibody, V domains shown) VH: EVQLLESGGGLVQPGGSLRLSCAASGIDLSTYAMGWVREAPGKGLEWVGLIHRSGRTYYATWAKGRFTISKDSSKNTLYLQMNSLRAEDTAVYYCTRSYPDYSATASIWGQGTTVTVSS VL: DIQVTQSPSSLPASVGDRVTITCQASENVANALAWYQKKPGKPPKFLIYGASNLASGVPSRFSGSGSGTDFTFTISSLQPEDIATYYCQQAYYGNSFVEGTFGGGTKVEIK
1.65

Now let's try a different one.
Looking up anti-CCR8 1889 S12P.I29V.E95dS.Y58A (PVSA) (antibody, V domains shown, It is put together from the printed names of the heavy and light chain variants) VH: EVQLLESGGGLVQPGGSLRLSCAASGIDLSTYAMGWVREAPGKGLEWVGLIHRSGRTAYATWAKGRFTISKDSSKNTLYLQMNSLRAEDTAVYYCTRSYPDYSATASIWGQGTTVTVSS VL: DIQVTQSPSSLPASVGDRVTITCQASENVANALAWYQKKPGKPPKFLIYGASNLASGVPSRFSGSGSGTDFTFTISSLQPEDIATYYCQQAYYGNSFVSGTFGGGTKVEIK , I found its EC50 recorded as 1.19
